Substrate: [H][C@]12C[C@]([H])(OO1)[C@H](C/C=C\CCCC(=O)O)[C@H]2/C=C/[C@@H](O)CCCCC
Test: purified protein
Details: PGD2 synthase reaction; 2 mM GSH fixed (saturating); PGH2 0.08-40 μM
endpoint_label: Km (µM)
Report the figure in µM without appending any unit label.

In: Can you share its Km? I mean this protein: rCsGST-σ1 (Clonorchis sinensis) (protein) MADEHYTLFYFQFRGRAEAIRMILHANGVHFKDERFTMNEWPERRNQIPGSRVPLLQVKKNKTHEVANYVESMAIARMLAKRFHMMGDSEEEYYRVERMIGQCADLDKEFYTAFFAAADQKEEMLKKSMREAVPKMLDLISKSISESGGKFAAGDKVTLGDICLLTSMDHVRKHDPEFLGKHYPKLLVLEQEVLKAKPKLAEYIRTRPETPL
Out: 92.1

In: What about rCsGST-σ3 (Clonorchis sinensis) (protein) MSGEKYKLYYFPFRARGEVIRMVLHAAGVPFDDERIPMDDWPKRKSEIPGGRMPVLQVIDPDKPDTPKNFVEGMAIARMLAKRFDLMDDTEEGYYNTERMIGECEDVFKEFRSVFLSPADKKEELLKEAMETSIPKQLDLISKSLSESAGKFVAGCKVTLGDLCLLACLDHVDKSDPEFLKDKYPKLLEWREEVLKEKPKLADYIKSRPDTPF ?
Out: 30.2

In: Now consider rCsPGDS1 (Clonorchis sinensis) (protein) MSQYKLTYFNLRGRAEPIRMVLIISGTPFEDCRIEVSDWPSKKSTIPGGKLPILEVTSPCGKKTLMTESMATARYLAKQHNLMGATDEDYYKIEKTIGECGDLHDLVYKIARAPDAEKPKLIEELKKLENAPRLLNLMSETLKSNPSGFVAGEKVSLGDIALLCTLDQFESVYPGFLKENYPIFANHREHIMELQPKLAEHIKTRPTTIV .
Out: 21.0

In: Now the protein rCsGST-μ1 (Clonorchis sinensis) (protein) MAPVLGYWKIRGLAQPIRLLLEYVGDSYEEHSYGRCDGEKWQNDKHNLGLELPNLPYYKDGNFSLTQSLAILRYIADKHNMIGNTPVERAKISMIEGGLVDLRAGVSRIAYQETFVCIVSTFCLSHTSQEQLKVPYLQQLPSTLRMWSQFLGNNSYLHGSTPTHLDFMFYEALDVIRYLDPTSVEAFPNLMQFIHRIEALPNIKAFMESDRFIKWPLNGWSAYFGGGDAPPK
Out: 4.9
